Kindly supply the reported IC50 values for the records listed here.
- ASSAY_SYSTEM: delta opioid receptor
- METHOD: opioid receptor assay, format not described (Table 1, δ IC50)
Non-standard residues stand in square brackets, D forms with d. No end group written: not given here. *: point of attachment. βGlc = OC[C@H]1O[C@@H](*)[C@H](O)[C@@H](O)[C@@H]1O; Aib = CC(C)(N)C(=O)O; βAla = NCCC(=O)O
Mention the unit after the number when you answer.

Inquiry: Supply measured IC50 of Y[dT]GFL[βAla]NL[Aib]EKALKS(βGlc)L-NH2 [Glycopeptide 10 (YtGFLβANLBEKALKS*L)] in your reply.
Reply text: 109 nM

Inquiry: Supply measured IC50 of Y[dT]GFLGELAS(βGlc)KWFNALES(βGlc)-NH2 [Glycopeptide 2 (YtGFLGELAS*KWFNALES*)] in your reply.
Reply text: 9.5 nM

Inquiry: Supply measured IC50 of Y[dT]GFLGLLKS(βGlc)FAES(βGlc)WS(βGlc)NF-NH2 [Glycopeptide 6 (YtGFLGLLKS*FAES*WS*NF)] in your reply.
Reply text: 11.9 nM

Inquiry: Supply measured IC50 of Y[dT]GFLGGNL[Aib]EKALKS(βGlc)L-NH2 [Glycopeptide 11 (YtGFLGGNLBEKALKS*L)] in your reply.
Reply text: 32.5 nM

Inquiry: Supply measured IC50 of Y[dT]GFLPNL[Aib]EKALKS(βGlc)L-NH2 [Glycopeptide 9 (YtGFLPNLBEKALKS*L)] in your reply.
Reply text: 6.15 nM

Inquiry: Supply measured IC50 of Y[dT]GFLGKS(βGlc)FAELWS(βGlc)NFLS(βGlc)-NH2 [Glycopeptide 7 (YtGFLGKS*FAELWS*NFLS*)] in your reply.
Reply text: 25.6 nM
